test system: H929; assay: Proliferation inhibition test, Wnt mutant cell line H929; format: cell-based; conditions: H929, 96 h culture with compound; read-out: Antiproliferation IC50 H929
measured_metric: IC50 (µM)
Note: unit µM is implicit; provide only the numeric part.

Q: Test system H929; read-out IC50; what value for Cc1nc(C(F)(F)F)ncc1Oc1ccc(CNc2nc3c4c(n2)N(C)[C@@](C)([C@H](C)O)C(=O)N4CCC3)cn1 ?
Ans: 0.309

----------
test system: DU4475; assay: Proliferation inhibition test, Wnt mutant cell line DU4475; type: cell-based; settings: Homo sapiens, DU-4475, 96 h, DU4475, 96 h culture with compound; read-out: Antiproliferation IC50 DU4475
measured_metric: IC50

Q: Sample [2H]C([2H])([2H])N1c2nc(NCc3ccc(Oc4ccc(C(F)(F)F)nc4F)nc3)nc3c2N(CCC3)C(=O)[C@]1(C)CO — what was its IC50?
Ans: 6.72 nM

Q: Please give the measured IC50 for this compound: Cc1nc(C(F)(F)F)ncc1Oc1ccc(CNc2nc3c4c(n2)N(C)[C@@](C)([C@H](C)O)C(=O)N4CCC3)cn1
Ans: 47.4 nM

Q: Any idea what IC50 was measured for Cc1nc(C(F)(F)F)ncc1Oc1ccc(CNc2nc3c4c(n2)N(C)[C@@H]([C@@H](C)O)C(=O)N4CCC3)cn1 ?
Ans: 16 nM

Q: For [2H]C([2H])([2H])N1c2nc(NCc3ccc(Oc4cnc(C(F)(F)F)nc4CC)nc3)nc3c2N(CCC3)C(=O)[C@]1(C)CO , what is its reported IC50?
Ans: 3.59 nM

Q: Given the entry [2H]C([2H])([2H])N1c2nc(NCc3ccc(Oc4ccc(C(F)(F)F)nc4Cl)nc3)nc3c2N(CCC3)C(=O)[C@@H]1CO , report its measured IC50.
Ans: 3.17 nM

Q: Need IC50 of CNc1nc(C(F)(F)F)ccc1Oc1ccc(CNc2nc3c4c(n2)N(C)[C@@](C)(CO)C(=O)N4CCC3)cn1 , thanks.
Ans: 1.2 nM

Q: State the recorded IC50 for this entry: Cc1nc(C(F)(F)F)ncc1Oc1ncc(CNc2nc3c4c(n2)N(C)[C@@](C)(CO)C(=O)N4CCC3)cc1F
Ans: 16.8 nM

Q: Given [2H]C([2H])([2H])N1c2nc(NCc3ccc(Oc4cnc(C(F)(F)F)nc4C4CC4)nc3)nc3c2N(CCC3)C(=O)[C@]1(C)CO , state its recorded IC50.
Ans: < 0.5 nM

Q: What value of IC50 has been recorded for this entry: [2H]C([2H])([2H])N1c2nc(NCc3ccc(Oc4ccc(C(F)(F)F)nc4F)nc3)nc3c2N(CCC3)C(=O)[C@@H]1CO
Ans: 24.6 nM

Q: Dear colleague, I am looking for the recorded IC50 of the following compound: [2H]C([2H])([2H])N1c2nc(NCc3ccc(Oc4cnc(C(F)(F)F)nc4C)nc3)nc3c2N(CCC3)C(=O)[C@@H]1[C@@H](C)O
Ans: 23.2 nM

Q: Name the recorded IC50 for Cc1nc(C(F)(F)F)ncc1Oc1ccc(CNc2nc3c4c(n2)N(C)[C@@](C)(CO)C(=O)N4CCC3)cn1 .
Ans: 14.8 nM

Q: Sample CN(c1nc(C(F)(F)F)ccc1Oc1ccc(CNc2nc3c4c(n2)N(C)[C@@](C)(CO)C(=O)N4CCC3)cn1)C1CC1 — what was its IC50?
Ans: < 0.1 nM

Q: Entry [2H]C([2H])([2H])N1c2nc(NCc3ccc(Oc4cnc(C(F)(F)F)nc4C4CC4)nc3)nc3c2N(CCC3)C(=O)[C@@H]1CO has what IC50?
Ans: 0.46 nM

Q: # query: IC50 of entry CN1c2nc(NCc3ccc(Oc4ccc(C(F)(F)F)nc4CC#N)nc3)nc3c2N(CCC3)C(=O)[C@@H]1CO
Ans: 42.9 nM
